IC50 by entry:
study.system: NEP enzyme (Homo sapiens)
Construct: purchased R&D Systems, Minneapolis, Minn; 1182-ZN
Sequence (P08473 52-750 limits assumed): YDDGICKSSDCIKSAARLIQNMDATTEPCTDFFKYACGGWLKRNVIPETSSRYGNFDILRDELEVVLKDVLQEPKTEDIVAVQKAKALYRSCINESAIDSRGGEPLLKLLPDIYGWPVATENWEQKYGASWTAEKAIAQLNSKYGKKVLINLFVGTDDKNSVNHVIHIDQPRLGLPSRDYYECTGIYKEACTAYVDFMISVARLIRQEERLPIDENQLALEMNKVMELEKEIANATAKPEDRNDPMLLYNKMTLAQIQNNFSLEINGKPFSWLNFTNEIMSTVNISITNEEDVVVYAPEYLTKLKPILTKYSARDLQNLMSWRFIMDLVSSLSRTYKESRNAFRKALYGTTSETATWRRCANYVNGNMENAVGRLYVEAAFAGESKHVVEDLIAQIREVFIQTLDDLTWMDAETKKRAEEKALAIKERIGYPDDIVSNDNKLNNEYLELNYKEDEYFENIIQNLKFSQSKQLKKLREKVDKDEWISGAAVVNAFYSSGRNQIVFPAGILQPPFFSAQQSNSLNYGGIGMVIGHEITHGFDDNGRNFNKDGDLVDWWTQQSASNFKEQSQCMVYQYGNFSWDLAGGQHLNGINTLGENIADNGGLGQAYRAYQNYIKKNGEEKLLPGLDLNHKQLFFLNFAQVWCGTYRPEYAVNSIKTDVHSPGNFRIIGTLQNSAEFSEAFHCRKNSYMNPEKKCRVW
assay.procedure: NEP enzyme inhibition assay (fluorogenic peptide substrate)
Assay type: biochemical
run.parameters: values given as lower bounds; * = prodrugs, may not exhibit NEP activity in an in vitro assay; read-out: NEP pIC50 (converted)

# compound, IC50
data = [
    ("CCOc1cc(C(=O)N[C@@H](CS)Cc2ccccc2)nn1Cc1ccc(-c2ccccc2-c2nnn[nH]2)cc1 [Example 3-4]", "≤ 100 nM"),
    ("CCCc1cc(C(=O)N[C@@H](CC(=O)O)Cc2ccccc2Cl)nn1Cc1ccc(-c2ccccc2S(=O)(=O)NC(C)=O)cc1 [Example 6-27]", "≤ 1000 nM"),
    ("CCCc1cc(C(=O)N[C@@H](CC(=O)O)Cc2ccccc2Br)nn1Cc1ccc(-c2ccccc2-c2nnn[nH]2)nc1 [Example 14-4]", "≤ 100 nM"),
    ("CCCc1cc(C(=O)N[C@@H](CS)Cc2ccccc2)nn1Cc1ccc(-c2ccccc2C(=O)O)cc1 [Example 9-6]", "≤ 100 nM"),
    ("CCCc1cc(C(=O)N[C@@H](CC(=O)O)Cc2ccccc2C(F)(F)F)nn1Cc1ccc(-c2ccccc2-c2nnn[nH]2)cc1 [Example 3-36]", "≤ 1000 nM"),
    ("CCCc1cc(C(=O)N[C@@H](CC(=O)O)Cc2ccccc2)nn1Cc1ccc(-c2ccccc2-n2nn[nH]c2=O)cc1 [Example 16-4]", "≤ 1000 nM"),
    ("CCCc1cc(C(=O)N[C@H](Cc2ccccc2)[C@@H](O)C(=O)O)nn1Cc1ccc(-c2ccccc2-c2nnn[nH]2)cc1F [Example 3-23]", "≤ 100 nM"),
    ("CCCc1cc(C(=O)N[C@H](Cc2ccccc2)[C@@H](O)C(=O)O)nn1Cc1ccc(-c2ccccc2S(=O)(=O)NC(=O)c2ccncc2)cc1 [Example 7-4]", "≤ 1000 nM"),
    ("CCCc1cc(C(=O)N[C@@H](CC(=O)O)Cc2ccccc2Cl)nn1Cc1ccc(-c2ccccc2-n2nn[nH]c2=O)cc1 [Example 16-5]", "≤ 1000 nM"),
    ("CCCc1cc(C(=O)N[C@@H](CC(=O)OC)Cc2ccccc2)nn1Cc1ccc(-c2ccccc2-c2nnn[nH]2)cc1 [Example 3-27]", "≤ 10000 nM"),
    ("CCCc1cc(C(=O)N[C@H](Cc2ccccc2Cl)[C@@H](O)C(=O)O)nn1Cc1ccc(-c2ccccc2-c2nnn[nH]2)cc1 [Example 3-22]", "≤ 100 nM"),
    ("CCCc1cc(C(=O)N[C@@H](CC(=O)O)CC(C)C)nn1Cc1ccc(-c2ccccc2-c2nnn[nH]2)nc1 [Example 14-7]", "≤ 100 nM"),
    ("CCCc1cc(C(=O)N[C@H](Cc2ccccc2)[C@@H](O)C(=O)O)nn1Cc1ccc(-c2ccccc2S(=O)(=O)NC(=O)C(C)(C)N)cc1 [Example 7-19]", "≤ 1000 nM"),
    ("CCCc1cc(C(=O)N[C@H](Cc2ccccc2)[C@@H](O)C(=O)O)nn1Cc1c(F)cc(-c2ccccc2-c2nnn[nH]2)cc1F [Example 3-26]", "≤ 100 nM"),
    ("CCCc1cc(C(=O)N[C@@H](CC(=O)O)Cc2ccccc2)nn1Cc1ccc(-c2ccccc2-c2nnn[nH]2)cc1F [Example 3-30]", "≤ 10000 nM"),
    ("CCCc1cc(C(=O)N[C@H](Cc2ccccc2)[C@@H](O)C(=O)O)nn1Cc1cnc(-c2ccccc2S(=O)(=O)NC(C)=O)cn1 [Example 17-5]", "≤ 100 nM"),
    ("CCCc1cc(C(=O)N[C@H](Cc2ccccc2)[C@@H](O)C(=O)O)nn1Cc1ccc(-c2ccccc2S(=O)(=O)NC(C)=O)cc1F [Example 6-14]", "≤ 100 nM"),
    ("CCCc1cc(C(=O)N[C@@H](Cc2ccccc2)CN(O)C=O)nn1Cc1ccc(-c2ccccc2S(=O)(=O)NC(C)=O)cc1 [Example 6-22]", "≤ 100 nM"),
    ("CCCc1cc(C(=O)N[C@H](Cc2ccccc2)[C@@H](O)C(=O)O)nn1Cc1c(F)cc(-c2ccccc2S(=O)(=O)NC(C)=O)cc1F [Example 6-19]", "≤ 100 nM"),
    ("CCCc1cc(C(=O)N[C@H](Cc2ccccc2)[C@@H](O)C(=O)O)nn1Cc1ccc(-c2ccccc2S(=O)(=O)NC(C)=O)cc1 [Example 4]", "≤ 100 nM"),
    ("CCCCc1cc(C(=O)N[C@H](Cc2ccccc2)[C@@H](O)C(=O)O)nn1Cc1ccc(-c2ccccc2S(=O)(=O)NC(C)=O)cc1F [Example 6-11]", "≤ 1000 nM"),
    ("CCCc1cc(C(=O)N[C@@H](CC(=O)NO)Cc2ccccc2)nn1Cc1ccc(-c2ccccc2S(=O)(=O)NC(C)=O)cc1 [Example 6-18]", "≤ 100 nM"),
    ("CCOc1cc(C(=O)N[C@@H](CC(=O)O)Cc2ccccc2)nn1Cc1ccc(-c2ccccc2-c2nnn[nH]2)cc1 [Example 3-32]", "≤ 10000 nM"),
    ("CCCc1cc(C(=O)N[C@@H](CC(=O)OC)Cc2ccccc2Cl)nn1Cc1ccc(-c2ccccc2-c2nnn[nH]2)cc1 [Example 3-28]", "≤ 10000 nM"),
    ("CCCc1cc(C(=O)N[C@H](Cc2ccccc2)[C@@H](O)C(=O)O)nn1Cc1ccc(-c2ccccc2-c2nc(=O)o[nH]2)cc1 [Example 16-2]", "≤ 1000 nM"),
    ("CCCc1cc(C(=O)N[C@H](CC(C)C)[C@@H](O)C(=O)O)nn1Cc1ccc(-c2ccccc2-c2nnn[nH]2)nc1 [Example 14-8]", "≤ 1000 nM"),
]

Data origin, for the record: patent US8350027B2
